Inhibition 4 values, listed per item
biological target: cloned human or rodent CNS receptors, channels, and transporters (PDSP panel) (Homo sapiens); construct: expressed in transfected cells; experiment: PDSP GPCR panel primary binding assays at 10 μM; details: Receptor 5-HT2B; primary assay, 10 μM
Sequence (P41595 whole entry): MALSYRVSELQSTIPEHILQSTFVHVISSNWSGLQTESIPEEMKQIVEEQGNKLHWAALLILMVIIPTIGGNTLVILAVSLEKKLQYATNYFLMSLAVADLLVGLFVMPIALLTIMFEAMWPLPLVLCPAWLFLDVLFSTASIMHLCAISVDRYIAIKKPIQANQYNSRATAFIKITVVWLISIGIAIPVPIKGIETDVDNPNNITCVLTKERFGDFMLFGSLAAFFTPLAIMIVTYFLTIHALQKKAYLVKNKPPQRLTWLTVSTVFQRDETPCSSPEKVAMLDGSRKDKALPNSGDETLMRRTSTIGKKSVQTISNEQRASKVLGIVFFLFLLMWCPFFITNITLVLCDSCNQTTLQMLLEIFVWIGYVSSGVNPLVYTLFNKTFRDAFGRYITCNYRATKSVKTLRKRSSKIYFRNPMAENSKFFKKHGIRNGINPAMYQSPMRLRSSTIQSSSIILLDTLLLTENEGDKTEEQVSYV
readout.label: Inhibition 4 (%)

INSERT INTO assay_data (compound, measure_unit, observed_measurement) VALUES
  ('CCCCNc1ncc2c(-c3ccc(CN4CCN(C)CC4)cc3)cn([C@H]3CC[C@H](O)CC3)c2n1 [UNC2025C, UNC2025]', '%', 18.41),
  ('Cl.NC(=O)c1cnc(N[C@@H]2CCCC[C@@H]2N)nc1Nc1cccc(-n2nccn2)c1 [UNC10302682A, P505-15 (PRT06207 HCl)]', '%', -13.48),
  ('c1cn2cc(-c3ccc4cn[nH]c4c3)nc(Nc3ccc(N4CCOCC4)cc3)c2n1 [UNC10302678A, Entospletinib (GS-9973)]', '%', 15.05),
  ('O=c1oc2ccccc2cc1-c1cn2cc(Cc3ccc(F)cc3)sc2n1 [UNC10302680A, iMDK]', '%', -31.52);
